# experimental setup: in isopropanol, 318.15 K
parameter measured: solubility (mole fraction)
Hey, just send me the number, nothing else.

Give me measured solubility (mole fraction), please, for this compound: `Cc1nc2n(c(=O)c1CCN1CCC(c3noc4cc(F)ccc34)CC1)CCCC2` 0.0032

* * *

# experimental setup: in acetone, 313.15 K
parameter measured: solubility (mole fraction)
Hey, just send me the number, nothing else.

Give me measured solubility (mole fraction), please, for this compound: `Cc1nc2n(c(=O)c1CCN1CCC(c3noc4cc(F)ccc34)CC1)CCCC2` 0.00336
